# test_method_notes: compound fluorescence in GFP channel, mTEFS cells – imaging, mTEFS fibroblasts, cherry-pick, artefact control for X-chromosome reactivation project, dose response (AID 743396);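 also: raw share of Hoechst-counted cells scored GFP positive without control normalization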
# assay_conditions: mTEFS fibroblasts autofluorescence, GFP-channel imaging, 3 days; at 19.5 µM (top of the series); cells pretreated with 5-aza-dC
% fluorescent cells increase values, listed per item
API: value field is a number in %; no unit string.

In the examples that follow, each entry is paired with its recorded % fluorescent cells increase.
                                   compound  unit_string  reported_result
0  COc1ccc(-n2c(=O)n(Cc3ccccc3)c(=O)c3[nH]cnc32)cc1            %            0.008
1  COc1ccc2c3c([nH]c2c1)[C@H](CO)N(C(=O)Nc1ccc(F)cc1)CC31CN(CC2CC2)C1            %            0.116

stdin: Can you share its % fluorescent cells increase? I mean this compound: CCOC(=O)c1ccc(NC(=O)C2(N3C(=O)c4ccccc4C3=O)CCCC2)cc1
stdout: 0.495

stdin: Can you share its % fluorescent cells increase? I mean this compound: CCCCC(CCC(=O)Nc1ccn(-c2ccccc2)n1)C(=O)O (stereo not drawn)
stdout: -0.003

stdin: Can you share its % fluorescent cells increase? I mean this compound: COc1ccccc1N(C)c1cc2c(c3c1ccn3C)C1CCC2C1 (stereo not drawn)
stdout: 0.033

stdin: Can you share its % fluorescent cells increase? I mean this compound: Cc1ccc(Nc2nc(N)nc(COC(=O)C3=COCCO3)n2)cc1
stdout: -0.007
